The origin of these recorded values is ChEMBL document CHEMBL4699542.

Assay: Drug level in brain of transgenic J20 mouse overexpressing human APP at 25 mg/kg, po administered via gavage for 3 consecutive days and measured after 4 hrs post last dose on day 3 by HPLC-MS/MS analysis
Type: ADME, organism-based
Settings: time 3 day, read-out: Ct
Would you mind telling me the reported concentration at 72 h of each entry?
Value expressed in ng/g; do not type the unit.

Give the reported concentration at 72 h for this molecule. COc1nc(-c2csc(Nc3c4c(nn3CCF)CCCC4)n2)ccc1-n1cnc(C)c1
39

Dear colleague, please send me the reported concentration at 72 h for CCn1nc2c(c1Nc1nc(-c3ccc(-n4cnc(C)c4)c(OC)n3)cs1)CCC2 when you can.
31

====

Experiment: Cmax in CD-1 mouse at 1 mg/kg, iv administered as single dose measured up to 24 hrs
Assay type: ADME, organism-based
Parameters: route intravenous, dose 1 mg/kg, time <=24
Settings: in vivo
Note to self: Cmax under 0.5 µg/mL means y, ties and anything higher get n.

# TODO verify Cmax < 0.5 µg/mL strictly for this compound: COc1nc(-c2csc(Nc3c4c(nn3CCF)CCCC4)n2)ccc1-n1cnc(C)c1
y

Cmax under 0.5 µg/mL? Item: CCn1nc2c(c1Nc1nc(-c3ccc(-n4cnc(C)c4)c(OC)n3)cs1)CCC2
n

Lab note: confirm whether the reported Cmax for this compound is below 0.5 µg/mL, equality not counting. compound: CCn1nc2c(c1Nc1nc(-c3ccc(-n4cnc(C)c4)c(OC)n3)cs1)CCCC2
n

For COc1nc(-c2csc(Nc3c4c(nn3C)CCC4)n2)ccc1-n1cnc(C)c1 , is the recorded Cmax below the cut-off of 0.5 µg/mL?
y

hey, is Cmax for CCn1nc(C2(C)CC2)cc1Nc1nc(-c2ccc(-n3cnc(C)c3)c(OC)n2)cs1 lower than 0.5 µg/mL or not?
y

Criterion: Cmax strictly below 0.5 µg/mL. Is it met by CCn1nc(C(F)(F)F)cc1Nc1nc(-c2ccc(-n3cnc(C)c3)c(OC)n2)cs1 ?
y

====

Biological target: Gamma-secretase
Experiment: Modulation of gamma secretase in human SH-SY5Y cells overexpressing wild type APP751 assessed as effect on amyloid beta40 level by meso scale discovery
Assay type: cell-based
Provide the recorded pIC50 for the entries that follow.
Would you please state pIC50, meaning minus log10 of the concentration in mol/L, as a bare number?

Give the measured pIC50 for COc1nc(-c2csc(Nc3c4c(nn3CCF)CCCC4)n2)ccc1-n1cnc(C)c1
7.00

Tell us which pIC50 value is on record for CCn1nc2c(c1Nc1nc(-c3ccc(-n4cnc(C)c4)c(OC)n3)cs1)CCC2
6.68

Supply pIC50 value. Item: CCn1nc2c(c1Nc1nc(-c3ccc(-n4cnc(C)c4)c(OC)n3)cs1)CCCC2
6.98

====

Molecular target: Cytochrome P450 2C19 (Homo sapiens, UniProt P33261)
Sequence (P33261 whole entry): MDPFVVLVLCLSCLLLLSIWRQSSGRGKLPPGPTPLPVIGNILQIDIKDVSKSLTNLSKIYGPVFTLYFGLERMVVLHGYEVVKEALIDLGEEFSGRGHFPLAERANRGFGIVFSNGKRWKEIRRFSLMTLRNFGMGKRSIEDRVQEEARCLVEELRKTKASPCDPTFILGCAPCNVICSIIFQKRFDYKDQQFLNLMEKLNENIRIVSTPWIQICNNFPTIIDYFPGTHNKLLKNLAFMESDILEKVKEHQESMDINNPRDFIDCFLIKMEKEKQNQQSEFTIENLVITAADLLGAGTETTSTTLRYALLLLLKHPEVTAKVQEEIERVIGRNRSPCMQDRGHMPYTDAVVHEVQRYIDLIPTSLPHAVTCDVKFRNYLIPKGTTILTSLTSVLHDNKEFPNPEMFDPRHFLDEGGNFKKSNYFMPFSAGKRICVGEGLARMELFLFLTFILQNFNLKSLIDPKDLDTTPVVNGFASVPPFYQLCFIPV
Assay: Inhibition of recombinant CYP2C19 (unknown origin) by fluorescence-based assay
Could you please classify the records by IC50 using these ranges: I (below 7 µM), II (7 µM to below 30 µM), III (30 µM or more)

Sort COc1nc(-c2csc(Nc3cc(C(C)(C)C)nn3CCF)n2)ccc1-n1cnc(C)c1 into one of the categories.
I

Each molecule maps to one class by IC50. Which class for COc1nc(-c2csc(Nc3c4c(nn3C)CCC4)n2)ccc1-n1cnc(C)c1 ?
III

Which class holds COc1nc(-c2csc(Nc3c4c(nn3CCF)CCC4)n2)ccc1-n1cnc(C)c1 ?
III

Kindly state the category for this molecule: COc1nc(-c2csc(Nc3cc(C(C)(C)C)nn3C(C)C)n2)ccc1-n1cnc(C)c1
II

Form: Item = CCn1nc2c(c1Nc1nc(-c3ccc(-n4cnc(C)c4)c(OC)n3)cs1)CCCC2 ; Class = ?
I

Determine which band this molecule sits in: CCn1nc2c(c1Nc1nc(-c3ccc(-n4cnc(C)c4)c(OC)n3)cs1)C(C)CC2(C)C (racemic)
III

Which IC50 band matches COc1nc(-c2csc(Nc3c4c(nn3CCO)CCC4)n2)ccc1-n1cnc(C)c1 ?
II

Please classify: CCn1nc2c(c1Nc1nc(-c3ccc(-n4cnc(C)c4)c(OC)n3)cs1)CCCCC2
III

Lab note: which band did COc1nc(-c2csc(Nc3c4c(nn3CC(C)(C)O)CCCC4)n2)ccc1-n1cnc(C)c1 land in?
I

Field: class (IC50) — entry: COc1nc(-c2csc(Nc3c4c(nn3CCO)CCCC4)n2)ccc1-n1cnc(C)c1
III

Which IC50 band matches CCn1nc(C2(C)CC2)cc1Nc1nc(-c2ccc(-n3cnc(C)c3)c(OC)n2)cs1 ?
III

Quick check: band for CCn1nc2c(c1Nc1nc(-c3ccc(-n4cnc(C)c4)c(OC)n3)cs1)CCC2
III

Hi there! Could you help me figure out the category for CCn1nc(C(F)(F)F)cc1Nc1nc(-c2ccc(-n3cnc(C)c3)c(OC)n2)cs1 please?
II

Dear colleague, I would appreciate it if you could identify the bin for COc1nc(-c2csc(Nc3c4c(nn3CCF)CCCC4)n2)ccc1-n1cnc(C)c1 and reply at your convenience.
I

Assign a bin to COc1nc(-c2csc(Nc3cc(C(C)(C)C)nn3CC(F)(F)F)n2)ccc1-n1cnc(C)c1
II

Record COc1nc(-c2csc(Nc3c4c(nn3C(C)(C)C)CCCC4)n2)ccc1-n1cnc(C)c1 — which class?
II

Kindly state the category for this molecule: CCn1nc2c(c1Nc1nc(-c3ccc(-n4cnc(C)c4)c(OC)n3)cs1)CCC2(C)C
II

Which bin, given its IC50, does COc1nc(-c2csc(Nc3c4c(nn3CCCO)CCCC4)n2)ccc1-n1cnc(C)c1 occupy?
III

Which category fits this record: COc1nc(-c2csc(Nc3c4c(nn3C3CCC3)CCCC4)n2)ccc1-n1cnc(C)c1
I
